The measured values listed here are drawn from the supplement of paper PMC12042874.

- ASSAY_INFO: amyloid nucleation score (Sup35N fusion, yeast selection) (log enrichment); library NNK2; higher = more nucleation; inactive = no reads after selection;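 further: zero at mode of non-aggregating sequences after 7 days selection at 30°C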
Could you please report measured amyloid nucleation score for the items listed next?
Numbers only.

// worked examples, amyloid nucleation score included
>  <SUBSTANCE>
RCELSRRGTSLRTWRWARNG

>  <amyloid nucleation score>
1.46

$$$$
>  <SUBSTANCE>
LDICCIRGMNRHFRFYNVDV

>  <amyloid nucleation score>
-0.402

$$$$
>  <SUBSTANCE>
VGWKTGDRPSEMSSSWDLNG

>  <amyloid nucleation score>
-0.093

$$$$
>  <SUBSTANCE>
CNDGGENGWKCTGR

>  <amyloid nucleation score>
0.497

$$$$

# batch size: 6; output amyloid nucleation score per entry
1. NSLYRGRRHRAYDINVSFVK
2. CDVGFSHRYSSNYDKTWDMI
3. TVWRARLGSPCGFLCVDRSW
4. CERWRFI
5. MCVCCYSIRGLVTGWLWLMA
6. TYVHDPGFPLWLDMAKRFGL

[-0.392, -0.7, 0.414, -0.02, 4, 0.581]

# batch size: 2; output amyloid nucleation score per entry
1. MLCRYVVVQGLKVNMGHVFC
2. NIDSELSCDYD

[7.57, -0.784]
